// reported R2,f, relaxation rate in the presence of hCK2α per item
Target Under Test: hCK2α (Homo sapiens)
Construct: His-tag; made in house
Sequence (P68400 whole entry): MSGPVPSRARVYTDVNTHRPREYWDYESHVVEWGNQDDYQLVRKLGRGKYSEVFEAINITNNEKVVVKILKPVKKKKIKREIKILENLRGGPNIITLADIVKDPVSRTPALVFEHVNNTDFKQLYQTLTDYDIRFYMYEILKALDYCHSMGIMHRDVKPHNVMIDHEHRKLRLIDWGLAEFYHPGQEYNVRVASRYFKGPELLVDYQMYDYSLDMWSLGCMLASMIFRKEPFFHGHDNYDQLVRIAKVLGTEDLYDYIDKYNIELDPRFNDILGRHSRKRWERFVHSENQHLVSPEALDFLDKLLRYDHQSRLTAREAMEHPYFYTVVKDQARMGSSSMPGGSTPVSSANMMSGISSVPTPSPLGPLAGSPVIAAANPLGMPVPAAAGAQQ
Experiment: Relaxation-filtered 1H NMR (transverse relaxation) of peptides in the presence of hCK2α
Type: binding
Assay Context: 25 μM hCK2α, 2.5 mM peptide (100-fold excess), 25 mM Tris-HCl pH 7, 0.25 M NaCl, 10% D2O, 25 °C; global two-exponential fit; higher = stronger binding
Where no end group is shown, it is not given here.
Measurement Label: R2,f, relaxation rate in the presence of hCK2α (s⁻¹)

{"Substance": "EETEDE-NH2", "Target Under Test": "hCK2α (Homo sapiens)", "Observed": 17.2}
{"Substance": "DETEEE-NH2", "Target Under Test": "hCK2α (Homo sapiens)", "Observed": 10.4}
{"Substance": "EETEED-NH2", "Target Under Test": "hCK2α (Homo sapiens)", "Observed": 16.1}
{"Substance": "EETDEE-NH2", "Target Under Test": "hCK2α (Homo sapiens)", "Observed": 15.4}
{"Substance": "DDTDDD-NH2", "Target Under Test": "hCK2α (Homo sapiens)", "Observed": 7.1}
{"Substance": "EDTEEE-NH2", "Target Under Test": "hCK2α (Homo sapiens)", "Observed": 14.9}
